- target or test system: T1, human serum albumin (human, UniProt P02768 25-609)
- T1 construct: Negative control of the ELISA; also called HSA
- T1 sequence (P02768 25-609 limits assumed): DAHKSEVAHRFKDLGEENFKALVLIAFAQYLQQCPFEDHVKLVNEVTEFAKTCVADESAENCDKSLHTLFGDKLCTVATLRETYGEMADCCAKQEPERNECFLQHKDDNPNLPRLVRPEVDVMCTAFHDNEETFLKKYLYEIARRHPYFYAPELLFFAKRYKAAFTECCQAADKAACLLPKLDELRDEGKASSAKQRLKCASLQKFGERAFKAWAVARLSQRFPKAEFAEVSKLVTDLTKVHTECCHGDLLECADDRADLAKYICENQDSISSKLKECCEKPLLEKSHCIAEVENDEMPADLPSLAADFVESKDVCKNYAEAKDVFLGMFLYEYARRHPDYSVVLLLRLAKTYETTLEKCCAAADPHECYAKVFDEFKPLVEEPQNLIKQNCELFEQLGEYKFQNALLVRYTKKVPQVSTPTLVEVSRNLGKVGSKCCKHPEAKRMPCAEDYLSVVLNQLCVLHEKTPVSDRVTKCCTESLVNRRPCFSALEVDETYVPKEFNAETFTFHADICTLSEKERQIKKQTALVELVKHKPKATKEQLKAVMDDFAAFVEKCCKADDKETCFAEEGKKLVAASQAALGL
- assay method text: ELISA, negative control HSA

binder: ISOP193HR9P1G6 (designed binder, not shown: small tags and cut ends) LPAPKNLVVSRVTEDSARLSWTAPDAAFDSFDIYYYELRLGGEAIVLTVPGSERSYDLTGLKPGTEYLVTIYGVKVCEQSYPLSAISTT
ELISA HSA (RLU): 1200
--
binder: ISOP193ER9P1C8 (designed binder, not shown: small tags and cut ends) LPAPKNLVVSRVTEDSARLSWTAPDAAFDSFDIYYFEHPVGGEAIVLTVPGSERSYDLTGLKPGTEYLVTIYGVKGGTYSLPLSAIFTT
ELISA HSA (RLU): 400
--
binder: ISOP193BR9P1H3 (designed binder, not shown: small tags and cut ends) LPAPKNLVVSRVTEDSARLSWNRLDSEWVAFDSFLIQYQESEKVGEAIVLTVPGSERSYDLTGLKPGTEYTVSIYGVVFRPWLAYNSNPLSAIFTT
ELISA HSA (RLU): 1360
--
binder: ISOP193AR9P1B12 (designed binder, not shown: small tags and cut ends) LPAPKNLVVSRVTEDSARLSWTNEQITKYGFDSFLIQYQESEKVGEAIVLTVPGSERSYDLTGLKPGTEYTVSIYGVGAPYTVYDSNPLSAIFTT
ELISA HSA (RLU): 1440
